# assay-target: human CD3 (human, UniProt P07766 23-207; P04234 22-171; P09693 23-182)
# Sequence (P07766 23-207, chain 1 of 3): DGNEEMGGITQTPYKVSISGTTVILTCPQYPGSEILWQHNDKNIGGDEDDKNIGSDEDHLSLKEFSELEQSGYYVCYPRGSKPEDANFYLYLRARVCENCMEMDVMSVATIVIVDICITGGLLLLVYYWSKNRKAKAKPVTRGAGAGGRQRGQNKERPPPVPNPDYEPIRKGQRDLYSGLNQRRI
# Sequence (P04234 22-171, chain 2 of 3): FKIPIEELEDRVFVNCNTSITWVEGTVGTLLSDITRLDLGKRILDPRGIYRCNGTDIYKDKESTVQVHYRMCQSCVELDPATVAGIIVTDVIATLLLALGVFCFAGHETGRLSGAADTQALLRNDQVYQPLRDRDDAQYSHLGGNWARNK
# Sequence (P09693 23-182, chain 3 of 3): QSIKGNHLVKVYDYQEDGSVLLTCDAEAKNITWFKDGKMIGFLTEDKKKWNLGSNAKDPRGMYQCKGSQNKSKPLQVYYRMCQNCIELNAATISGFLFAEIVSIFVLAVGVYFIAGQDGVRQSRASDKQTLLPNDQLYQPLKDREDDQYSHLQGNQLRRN
# experimental-protocol: cell-based or functional assay
measured-quantity: CD8 EC50 (nM); CD69/CD25 on human T cells, plate-coated antibody
Please state the figure in nM; there is no need to write the unit.

mAb 173 (antibody, V domains shown) VH: EVQLVESGGGLVQPGRSLRLSCAASGFTFDDYTMHWVRQVPGKGLEWVSDISWNSGSVGYADSVKGRFTISRDNAKNSLYLQMNSLRAEDTALYYCVKDSSGYGHYFHYYMDVWGKGTTVTVSS VL: DIQMTQSPSSLSASVGDRVTITCRASQSISNYLNWYQVKPGKAPKVLIYAASSLQSGVPSRFSGSGSGTDFTLTISSLQPEDFVSYYCHQSYNTPITFGQGTRLEIK | 12.3
mAb 171 (antibody, V domains shown) VH: EVQLVESGGGLVQPGRSLRLSCAASGFTFADYTMHWVRQAPGQGLEWVSGISWNSGSIDYADSVKGRFIISRDNAKKTLYLQMNSLRAEDTALYYCAKDSSGYGHYYFYYLDVWGKGTTVTVSS VL: EIVMTQSPATLSVSPGERATLSCRASQSVSSNLAWYQQKPGQAPRLLIYSTSTRATGIPARFSGSRSGTEFTLTISSLQSEDSAVYYCQQYNNWPHFGQGTRLEIK | 6.71

Turning now to a further record.
For record mAb 165 (antibody, V domains shown) VH: EVQLVESGGGLVKTGGSLRLSCVASGFSFKKAWMNWVRQAPGKGLEWVGRIKRNTDGGTADYAAPVKGRFTLSRDDSKRTLYLQMNSLKTEDTAVYYCTTLDSSSRYVGYYYMDVWGKGTTVTVSS VL: DIQMTQSPSSVSASVGDRVIITCRASQDINNWLAWYQQKPGKVPKLLIYTASSLQSGVPSRFSGSGSGTDFTLTIGSLQPEDFATYYCQQAHSLPITFGQGTRLEIK the listed CD8 EC50 (nM); CD69/CD25 on human T cells, plate-coated antibody is 6.57
